Kindly supply the reported Aminopeptidase activity values for the records listed here.
Tested on: Fusobacterium nucleatum
Type: biochemical
Settings: strain D31A-24; β-naphthylamine liberated after 60 minutes, 37° C.
Peptide text beside a SMILES is read from it. * marks the point of attachment. βNA = c1ccc2cc(N*)ccc2c1
Give the value in nmol but do not write nmol after it.

[ask] Item N=C(N)NCCC[C@H](NC(=O)CN)C(=O)O [Gly-Arg, Glycyl-arginine] (H-Gly-Arg-OH) : provide Aminopeptidase activity
[reply] 1

[ask] Item CSCCC(N)C(=O)Nc1ccc2ccccc2c1 (racemic) : provide Aminopeptidase activity
[reply] 0

[ask] Item NCC(=O)N1CCC[C@H]1C(=O)O [Gly-Pro, Glycyl-proline] (H-Gly-Pro-OH) : provide Aminopeptidase activity
[reply] 0

[ask] Item NCCCC[C@H](N)C(=O)N1CCC[C@H]1C(=O)O [Lys-Pro, Lysyl-proline] (H-Lys-Pro-OH) : provide Aminopeptidase activity
[reply] 2

[ask] Item N=C(N)NCCC[C@H](NC(=O)[C@@H](N)CCCNC(=N)N)C(=O)O [Arg-Arg, Arginyl-arginine] (H-Arg-Arg-OH) : provide Aminopeptidase activity
[reply] 2

[ask] Item C[C@H](NC(=O)[C@@H](N)CCCCN)C(=O)O [Lys-Ala, Lysyl-alanine] (H-Lys-Ala-OH) : provide Aminopeptidase activity
[reply] 0

[ask] Item NC(=O)[C@@H](N)CCC(=O)O : provide Aminopeptidase activity
[reply] 1

[ask] Item C[C@H](N)C(=O)N[C@@H](C)C(=O)N[C@@H](Cc1ccccc1)C(=O)Nc1ccc2ccccc2c1 [Ala-Ala-Phe] (H-Ala-Ala-Phe-βNA) : provide Aminopeptidase activity
[reply] 0

[ask] Item CC(C)C[C@H](N)C(=O)NCC(=O)O [Leu-Gly, Leucyl-glycine] (H-Leu-Gly-OH) : provide Aminopeptidase activity
[reply] 0

[ask] Item Cl.N=C(N)NCCC[C@H](NC(=O)CNC(=O)CNC(=O)OCc1ccccc1)C(=O)Nc1ccc2ccccc2c1 : provide Aminopeptidase activity
[reply] 2

[ask] Item CC(C)C[C@H](NC(=O)[C@@H]1CCCN1C(=O)CN)C(=O)Nc1ccc2ccccc2c1 [Gly-Pro-Leu] (H-Gly-Pro-Leu-βNA) : provide Aminopeptidase activity
[reply] 2

----------
System: B. asaccharolyticus
Format: biochemical
Conditions: strain 536B; β-naphthylamine liberated after 60 minutes, 37° C.
Peptide text beside a SMILES is read from it. * marks the point of attachment. βNA = c1ccc2cc(N*)ccc2c1
endpoint: Aminopeptidase activity

[ask] Item CSCCC(N)C(=O)Nc1ccc2ccccc2c1 (racemic) : provide Aminopeptidase activity
[reply] 0 nmol

[ask] Item C[C@H](N)C(=O)N[C@@H](C)C(=O)N[C@@H](Cc1ccccc1)C(=O)Nc1ccc2ccccc2c1 [Ala-Ala-Phe] (H-Ala-Ala-Phe-βNA) : provide Aminopeptidase activity
[reply] 0 nmol

[ask] Item CC(C)C[C@H](N)C(=O)NCC(=O)O [Leu-Gly, Leucyl-glycine] (H-Leu-Gly-OH) : provide Aminopeptidase activity
[reply] 49 nmol

[ask] Item NC(=O)[C@@H](N)CCC(=O)O : provide Aminopeptidase activity
[reply] 0 nmol

[ask] Item CC(C)C[C@H](NC(=O)[C@@H]1CCCN1C(=O)CN)C(=O)Nc1ccc2ccccc2c1 [Gly-Pro-Leu] (H-Gly-Pro-Leu-βNA) : provide Aminopeptidase activity
[reply] 3 nmol

[ask] Item Cl.N=C(N)NCCC[C@H](NC(=O)CNC(=O)CNC(=O)OCc1ccccc1)C(=O)Nc1ccc2ccccc2c1 : provide Aminopeptidase activity
[reply] 1 nmol
